Hello, the source for this data is the supplement of paper PMC12764529, in case you need it.

# Assay: folding stability dG unfold from chymotrypsin proteolysis; higher = more stable
Label rule, in plain words: folding stability dG unfold of 3 kcal/mol and up is YES, under 3 kcal/mol is NO.

>>> qualitative_label("SYSIDTSKIEEAAAALPPNAVAELELTANVPESGFTLKLKVTITVDPAGKVTRITFTDPATGKKIATVDVGS [r1_165_JUSTAS]")
"NO"

Could you tell me if the measured folding stability dG unfold of SAGGSAGGSAGEKVKLVITTTVTLPALDPEGGEFVGPVTFTETIVLDMNPEDAARLLAAASAGGSAGGSAGG [r17_283_TrMRF] reaches 3 kcal/mol or more? NO

Is folding stability dG unfold for SAGGSMVVTETLVETLTETLTFPDGTPVTVTVPVTVTVEVYLPEPPAPPPLPFSRLAEELGDPALVSAGGSA [r2_340_JUSTAS] at or above 3 kcal/mol? NO

Given SAGGSAGGSMNVKKVESEKDTGDGSTLTTNTVELPSNIIIVEPVLTPPSGNPQTTTKILPKGLSAGGSAGGS [r12_407_JUSTAS] , state whether its folding stability dG unfold is at least 3 kcal/mol. NO

Determine whether measured folding stability dG unfold meets or exceeds 3 kcal/mol for SAGGSAGGKNWRTIPFMIWIPPGAPPIEFEIPLPDGWKVEIEISVVRNPDGWYFIMFSITVQPDSAGGSAGG [r6_510_TrROS] YES

API: above_or_equal(metric=folding stability dG unfold, cutoff=3 kcal/mol) for item SAGGSAGGSAGGMKVYRIGPDLYLVENEDGSLRIYNRDTGKVFTFKPGETITITIPPELLSAGGSAGGSAGG [r7_299_TrROS_Hall] NO

Please check the record SAGGSAGGKAEKITLEIPNTGKKVEIIKPENKAIITVYDKNGKPIKTIVVPPNFPGIEDAVKADSAGGSAGG [r6_424_TrMRF] and state if its folding stability dG unfold is at or above 3 kcal/mol. NO

Given the entry SAWYIIKIEIYNPGQNEPIASHTFMVPEEDLDAFKEKIADQFGMNPGWQIKVEIQPIPPVRDKDGEWKWSAG [r14_297_TrROS] , answer whether its folding stability dG unfold meets or surpasses 3 kcal/mol. NO

Check if folding stability dG unfold >= 3 kcal/mol (inclusive). Item: SAGGSAKYYYIVAEIDLPNKKVRFVKKVKKGDVEKFKAEIKKAFPGKKIKVKVIEFESEEEAKKAASAGGSA [r15_889_TrMRF] YES

Is it the case that SAGGKEIEELAKKLAEELGVEVVKVEVEKVGPDTVKVTVTLKDGKKIKIEIKKKKDGSYEIKVEIEPSAGGS [r8_284_TrROS_Hall] has folding stability dG unfold reaching or exceeding 3 kcal/mol? NO

In plain terms: is recorded folding stability dG unfold at least 3 kcal/mol for SAGGSAGGSAGKKTLYVIKIELSDEQLKEAKKEGKPLKLKAEIVEVKPVKVEVKKEYKKESAGGSAGGSAGG [r11_26_TrROS_Hall] ? NO

Decide: is the reported value of folding stability dG unfold for SAGGSAKRKVEIEIYISREELEEAKKNGKEPTAEAQKQIHRIAKRAREEGMDTVEIKIIPPGQPIPSAGGSA [r15_304_TrROS] equal to or greater than 3 kcal/mol? NO

Could you tell me if the measured folding stability dG unfold of SAGMETVKIKVRVKVTVRERLPDGTVKTREFELTLEIEVEVEPGQTAEELAKKLAEEFNIEEVEIEKVPSAG [r5_994_TrROS_Hall] reaches 3 kcal/mol or more? YES

Answer whether folding stability dG unfold of SAGGSAGGSKTITLSAEELEKMSPEERKKLAELAEKLGAKIEVKDGKVTITIEGLTPEELKALSAGGSAGGS [r12_945_TrROS_Hall] is greater than or equal to 3 kcal/mol. NO

---

# Assay: folding stability dG unfold (combined trypsin and chymotrypsin); higher = more stable
Given measured folding stability dG unfold, output satisfied if it is greater than or equal to 2 kcal/mol and not satisfied if not.

>>> qualitative_label("SAGDALKDIFPGLEIEPHEKPVKVPPGKPVEFAFIIRMPDGEIMIFDMHFNPGGEVRVRVLTIKLPEKSAGG [r19_125_TrROS]")
"satisfied"

# bool: folding stability dG unfold of SAGPWIMIPLPPELREIAKKAGMSPDDVETVEIPLKFGDREVKIEVEVMPDDGWIMVRFKSNGKEFMIPSAG [r5_545_TrROS] >= 2 kcal/mol satisfied

Is reported folding stability dG unfold greater than or equal to 2 kcal/mol here: SAGGSAGGSAGGKKKVKILEVKKIPELNEIVVVIETENGKPVLVPLKPGKTLEDVKKEISAGGSAGGSAGGS [r10_984_TrMRF] not satisfied

Would you say SAGSPATLRAQAEEEARALAAELGAEVTVDVTVEPVPGEYVVRTTATLTFPGGEVRTLPRTTRVPRSLVSAG [r5_609_JUSTAS] shows folding stability dG unfold at minimum 2 kcal/mol? not satisfied

Hello, I need to know if SAGKVKIVKIDKGKNKITIEFYDDGKKIATIPFPPNFPNTKVIAEVNEDGSIKVTFISGDKPIEITIDASAG [r5_533_TrMRF] has measured folding stability dG unfold not below 2 kcal/mol. Thanks! satisfied

Check if folding stability dG unfold >= 2 kcal/mol (inclusive). Item: SAGGSAGGSAGGSGSSVLVKTTTTLSVAPGATITLPDGTVYTVPAGVPVTVTTWVLVETSAGGSAGGSAGGS [r4_232_JUSTAS] satisfied

hey, is folding stability dG unfold for this one >= 2 kcal/mol? SAGGSAPFVPPGFVKSVEEFEVTFPDGSKYRVTLIEVDGGPLVLVEKPGVGEPKTLPFEKLLELLASAGGSA [r15_329_TrMRF] not satisfied

---

# Assay: folding stability dG unfold from trypsin proteolysis; higher = more stable
Listed below: folding stability dG unfold values for each entry.
Report the value in kcal/mol with no unit label.

Would you kindly share the measured folding stability dG unfold for SAGEYVLVEVERGGKVETFVLPPELAKELLEKYSPDSEIPVKLEGREVRLRVLPIKPKEPTPEELAKAASAG [r5_669_TrMRF] ? 0.306

Looking for the measured folding stability dG unfold of SAGGPEELAERIAEFARENGYEVDVLSVEELPGDFVRIHMRIRGLSEDEPVFERDAVLVFPPLPGERSAGGS [r8_102_TrMRF] , can you help? 1.45

Give the measured folding stability dG unfold of SAGGSAGGEYKVYPVKGDLKEFFDEAYKENPGGVRIIDPDTDEVLDFPPDLSLDEFPGTFVVLGSAGGSAGG [r6_857_TrMRF] . -0.238

What folding stability dG unfold value was documented for this sequence, SAGGSAGGSPNPKVVPFTFPVVIPDEDGHPYLVNVTVTAIPDTDTYYARITYPDGRVEDFVLASAGGSAGGS [r12_286_TrMRF] ? 1.94

---

In this section we review reported folding stability dG unfold values for a set of sequences.
# Assay: folding stability dG unfold (combined trypsin and chymotrypsin); higher = more stable
Write the value in kcal/mol as a bare number.

Reference set (5 entries):
>>> numeric_result("SAGGSAGGSAGMVDKKTGKPVEKVKVIIRNKNGKKEEKEVTLEELKELAENLPYEIEFEKSAGGSAGGSAGG [r17_125_TrROS_Hall]")
1
>>> numeric_result("SAGGSAGGPKKIKITNIEYPNGYWRVKISLPNGKEVEYPMDSPDDALDWAEDDGIKEVEIEKYNSAGGSAGG [r6_601_TrROS]")
0.159
>>> numeric_result("SAGGEVELKIKIEIRVELNEDGELKVEIKIEIELRPKPEPELTEEERLAEELRKKYPGLSKEELEALLSAGG [r13_136_TrROS_Hall]")
2.32
>>> numeric_result("SAGGMKVVIYVKDPEKFLKAIEEIENIPLENVKFEPLEGDYYKYEFPNLEAVEELIKKGYDILKIEPSAGGS [r16_381_TrMRF]")
2.34
>>> numeric_result("SAGGMTTTTVEVKRLPNGSIERTLKTTVPLPNGDLVVTTTKSIVYREDGKVVKEEVLETETTLLPATSAGGS [r8_36_JUSTAS]")
2.77

Bench note: what folding stability dG unfold did SAGGSAGGSAGGSKDERTLTLRLRVTTPIYGTDADGNPLEPIEVTKEYELTVTVPADLLSAGGSAGGSAGGS [r4_425_TrMRF] show? 2.1

Need folding stability dG unfold, item SAGGKMKLEVEILENEGTILVRFHFGDKVLEIPLPFPNLTPEDVKEAAEEIAKKLKEEYNIEEVEIESAGGS [r16_249_TrMRF] 2.64

---

# Assay: folding stability dG unfold from chymotrypsin proteolysis; higher = more stable
Measured folding stability dG unfold, listed per entry.
Write down the numeric answer in kcal/mol and omit the unit.

Here's what some known entries look like.
>>> numeric_result("SKTFYAGLDVYFDPDSDELTALVGVRSEDGSYEPSLEEVAREVAAKLRELGYEVEVEPLPGYARIRVKPPSA [r9_510_TrMRF]")
1.72
>>> numeric_result("SAGGSTTVTIETYESEKFPNGSFKTSTKKIVITNTLSPDEELTLPNGKKIPASLSAEEIAEAILKSESAGGS [r16_440_JUSTAS]")
0.522

Given SAGGSAGGSAGGSGLSFEIVEEREELLPDGRPRRRIFATLPGGRRLVIDDDGRITIDPDSAGGSAGGSAGGS [r4_111_TrMRF] , state its recorded folding stability dG unfold. 0.968

Dear colleague, I am looking for the recorded folding stability dG unfold of the following sequence: SAGGSAGGSAGGPVRLLVLEVPVENVEEVVRRLEALGSVRPVRVERLPGDRYRVLVVSPLSAGGSAGGSAGG [r7_589_TrMRF] 1.54

Quick one: folding stability dG unfold for SAGGSAGGDKVTIESFHPENWYFRIRYPGNGKPISFPIKSVDELLDKIEPSGLPVEIEWMPPEESAGGSAGG [r6_33_TrROS] ? 0.233
